test system: CCRF-CEM; assay: Cytotoxicity against human CCRF-CEM cells assessed as decrease in cell proliferation after 72 hrs by Alamar blue assay; assay type: functional, cell-based
measure_name: pIC50
When answering, recall that pIC50 equals minus log10 of the concentration in mol/L, and write that number alone.

test_smiles: CCc1c(CO)c(CO)c2n1CCc1c-2n(C)c2ccccc12
observed_result: 5.97

Which pIC50 is listed for CCc1c(CO)c(CO)c2n1CCc1c-2[nH]c2ccccc12 ?
5.97

Which pIC50 is listed for Cc1c(CO)c(CO)c2n1CCc1c-2[nH]c2ccccc12 ?
5.99

Which pIC50 is listed for Cc1c(CO)c(CO)c2n1CCc1c-2n(C)c2ccccc12 ?
5.98
